Test system: U2OS
protocol description: Multiplex assay against U2OS
Type: toxicity, cell-based
condition set: human, 12 h, 1 µM, compound concentration 1 uM, replicate 2
molecules and their reported Population Normal (%)

Use these answered entries as a reference point.
>>> test_value("CCCCCC(O)/C=C/[C@H]1C(=O)CC(O)C1C/C=C\\CCCC(=O)O (stereo partly drawn)")
"99%"
>>> test_value("Cc1cnc(-c2cc(N3CCN(C(=O)CCS(C)(=O)=O)CC3)ncc2Cl)c(C)c1")
"98%"
>>> test_value("Br.CS(=O)(=O)Nc1c(O)ccc2c1CCCC2C1=NCCN1 (stereo not drawn)")
"100%"

# query: Population Normal (%) of entry O=C(NCCN1CCC(n2c(=O)[nH]c3cc(Cl)ccc32)CC1)c1ccc(F)cc1 [HALOPEMIDE]
100%

Quick one: `Cc1cccc(NC(=O)CN2CCC(c3ccccn3)CC2)c1.Cl.Cl`
99%

---

System: Fibroblast
protocol description: Multiplex assay against human fibroblast
Format: toxicity, cell-based
condition set: 24 h, 1 µM, compound concentration 1 uM, replicate 1
test readout: Population Tubulin-Different-Phenotype (%)
Express your answer in %, writing the number without its unit.

Use these answered entries as a reference point.
>>> test_value("CCc1cc2cc(NS(=O)(=O)c3ccc(C#N)cc3)ccc2n(CC)c1=O")
26
>>> test_value("Cc1sc2c(c1C)C(c1ccc(Cl)cc1)=N[C@@H](CC(=O)NCCCCCCCCNC(=O)COc1cccc3c1C(=O)N(C1CCC(=O)NC1=O)C3=O)c1nnc(C)n1-2 (stereo partly drawn)")
25
>>> test_value("CN(C)C(=O)Cn1cc(-c2ccc(-c3cncc4ccccc34)cc2)cn1")
37
>>> test_value("CC(=O)Nc1cccc2c1c(Sc1ccc(Cl)cc1)c(C)n2CC(=O)O [AZD1981]")
28
>>> test_value("O=C(NCCN1CCC(n2c(=O)[nH]c3cc(Cl)ccc32)CC1)c1ccc(F)cc1 [HALOPEMIDE]")
38
>>> test_value("Cc1cnc(-c2cc(N3CCN(C(=O)CCS(C)(=O)=O)CC3)ncc2Cl)c(C)c1")
30
>>> test_value("Cc1noc(-c2ccc(-c3ccc(CC(=O)O)cc3)cc2)c1NC(=O)O[C@H](C)c1ccccc1Cl")
10

Continue with the next compound.
# query: Population Tubulin-Different-Phenotype (%) of entry `O=C1[C@H](Cc2ccc(O)cc2)N2C(=O)CCN(C(=O)NCc3ccccc3)[C@H]2CN1Cc1cccc2ccccc12`
49

---

Test system: HEK-293T
protocol description: Multiplex assay against HEK293T
Format: toxicity, cell-based
condition set: human, 48 h, 1 µM, compound concentration 1 uM, replicate 2
test readout: Population Membrane Permeable-Phenotype (%)
Express your answer in %, writing the number without its unit.

Use these answered entries as a reference point.
>>> test_value("Cc1cnc(-c2cc(N3CCN(C(=O)CCS(C)(=O)=O)CC3)ncc2Cl)c(C)c1")
0
>>> test_value("Cc1c(CC(=O)O)c2cccnc2n1Cc1ccc(S(C)(=O)=O)cc1C(F)(F)F")
0
>>> test_value("COc1ccccc1N1CCN(C[C@@H](C(=O)NC(C)(C)C)c2ccccc2)CC1.Cl.Cl")
0
>>> test_value("CCCCCC(O)/C=C/[C@H]1C(=O)CC(O)C1C/C=C\\CCCC(=O)O (some centres undefined)")
2
>>> test_value("CN1CCN(c2cc(-c3ccccc3)nc(N)n2)CC1")
0
>>> test_value("COc1cccc2c1c(NS(=O)(=O)c1ccc(Cl)s1)nn2Cc1cccc(CNC(=O)C(C)(C)O)c1")
2
>>> test_value("Cl.N=C(N)NC(=O)Cc1c(Cl)cccc1Cl [GUANFACINE HYDROCHLORIDE]")
0
>>> test_value("CC(/C=C1\\SC(=S)N(CCCC(=O)Nc2ccc(C(=O)O)c(O)c2)C1=O)=C\\c1ccccc1")
0

# query: Population Membrane Permeable-Phenotype (%) of entry `Cc1noc(-c2ccc(-c3ccc(CC(=O)O)cc3)cc2)c1NC(=O)O[C@H](C)c1ccccc1Cl`
0

Quick one: `Cc1onc(-c2ccccc2Cl)c1C(=O)N(C)c1ccc(Cl)cc1`
1

Quick one: `O=C(CCCc1ccccc1)Nc1nc2ccccc2c(=O)s1`
0

Quick one: `NCCc1cn(S(=O)(=O)c2c(Cl)nc3sccn23)c2ccccc12.O=C(O)C(=O)O`
1
